Assay: Transition midpoint (Tm) of dAbs, thermal stability (DSC)
Assay type: physicochemical
measured_quantity: Tm (° C.)

>  <molecule>
DOM7: domain antibody (single variable domain), Vh framework, SEQ ID NO: 5 (protein, Amino acid sequence identified using molecular biology techniques.) VHH: EVQLLESGGGLVQPGGSLRLSCAASGSTFTDDRMWWVRQAPGKGLEWVSAIQPDGHTTYYADSVKGRFTISRDNSKNTLYLQMNSLRAEDTAVYYCAEQDVKGSSSFDYWGQGTLVTVSS

>  <measured_quantity>
Tm (° C.)

>  <obs_value>
50.6 °C

$$$$
>  <molecule>
DOM1: domain antibody (single variable domain), Vκ framework, SEQ ID NO: 1 (antibody, V domains shown, Amino acid sequence identified using molecular biology techniques.) VL: DIQMTQSPSSLSASVGDRVTITCRASQDIYLNLDWYQQKPGKAPKLLINFGSELQSGVPSRFSGSGYGTDFTLTISSLQPEDFATYYCQPSFYFPYTFGQGTKVEIKR

>  <measured_quantity>
Tm (° C.)

>  <obs_value>
55 °C

$$$$
>  <molecule>
DOM3: domain antibody (single variable domain), Vh framework, SEQ ID NO: 3 (protein, Amino acid sequence identified using molecular biology techniques.) VHH: EVQLLESGGGLVQPGGSLRLSCAASGFTFAHETMVWVRQAPGKGLEWVSHIPPDGQDPFYADSVKGRFTISRDNSKNTLYLQMNSLRAEDTAVYHCALLPKRGPWFDYWGQGTLVTVSS

>  <measured_quantity>
Tm (° C.)

>  <obs_value>
65 °C

$$$$
>  <molecule>
DOM6: domain antibody (single variable domain), Vh framework, SEQ ID NO: 4 (protein, Amino acid sequence identified using molecular biology techniques.) VHH: EVQLLESGGGLVQPGGSLRLSCAASGFTFSEGTMWWVRQAPGKGLEWVSAILAAGSNTYYADSVKGRFTISRDNSKNTLYLQMNSLRAEDTAVYYCAKKRQERDGFDYWGQGTLVTVSS

>  <measured_quantity>
Tm (° C.)

>  <obs_value>
55.8 °C

$$$$
